MFI: recorded values
TARGET_ENTITY: T1, human TMEM106B (human, UniProt Q9NUM4 2-274)
T1 construct: full-length, transiently expressed on HEK293 cells, or natively expressed on HeLa, U251 and A549 cells (the cell is named under assay); also the source of the Pepscan peptides; also called huTMEM106B; huTMEM
MEASUREMENT_PROTOCOL: FACS HEK+huTMEM 1.0 ug/ml;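 note: binding of purified mouse IgG antibodies to HEK293 cells transiently expressing human TMEM106B, read by flow cytometry as median fluorescence intensity of live, propidium iodide-negative cells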
State the answer as a number, implicitly in MFI.

Guide cases for MFI, answers given:
BINDER: TM-3 (antibody, V domains shown) VH: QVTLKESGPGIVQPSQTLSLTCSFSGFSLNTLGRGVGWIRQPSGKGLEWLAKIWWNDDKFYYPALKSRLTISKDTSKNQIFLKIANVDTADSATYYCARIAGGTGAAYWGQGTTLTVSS VL: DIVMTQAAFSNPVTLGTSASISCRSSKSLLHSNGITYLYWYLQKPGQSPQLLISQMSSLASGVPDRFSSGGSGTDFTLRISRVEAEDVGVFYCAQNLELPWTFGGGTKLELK
MEASURED_PROPERTY: MFI
NUMERIC_VALUE: 89100

BINDER: TM-21 (antibody, V domains shown) VH: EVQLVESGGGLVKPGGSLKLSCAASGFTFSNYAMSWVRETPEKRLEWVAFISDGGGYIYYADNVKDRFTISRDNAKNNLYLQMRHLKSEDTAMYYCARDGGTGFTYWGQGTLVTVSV VL: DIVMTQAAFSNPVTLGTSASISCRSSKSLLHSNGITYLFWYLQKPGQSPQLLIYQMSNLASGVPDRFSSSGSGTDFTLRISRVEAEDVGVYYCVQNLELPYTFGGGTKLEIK
MEASURED_PROPERTY: MFI
NUMERIC_VALUE: 69400

Here is the next item to consider.
Inquiry: What MFI value was documented for this binder, TM-22 (antibody, V domains shown) VH: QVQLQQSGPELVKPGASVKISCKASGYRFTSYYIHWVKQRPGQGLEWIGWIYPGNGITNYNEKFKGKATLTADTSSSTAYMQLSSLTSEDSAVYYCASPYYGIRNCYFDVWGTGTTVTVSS VL: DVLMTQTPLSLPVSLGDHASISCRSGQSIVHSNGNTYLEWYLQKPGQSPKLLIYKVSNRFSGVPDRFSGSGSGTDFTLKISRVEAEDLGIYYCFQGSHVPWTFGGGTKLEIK ?
Reply text: 2100
